This collection of values is drawn from PubChem BioAssay AID902.

# assayText: qHTS Screen for Compounds that Selectively Target Cancer Cells with p53 Mutations: Cytotoxicity of p53ts Cells at the Nonpermissive Temperature; also: nearly all actives have a fitted effect of over 55% in size
# measurementConditions: H1299-p53A138V viability at 39C, ATP luminescence, 24 h; series mostly up to 46.1 µM
Out of some 130,000 compounds screened, about 1,900 (1.5%) were called active. Another 5% or so got no clear call; they are omitted. Calls follow the shape of the dose curve; as a rule, active = well fitted cell-killing curve with a large enough effect; inconclusive = small, poorly fitted or top-dose-only effect; inactive = no such curve, though single readings can be large or run the other way. Many of the other results were omitted from the sample, so actives are more common in it than they were.
The categories you may choose from are Yes (active), No (inactive)

Problem: State the result this test recorded for Cc1ccn2c(Nc3ccc4c(c3)OCCO4)c(-c3ccc(C)s3)nc2c1 .
Result: Yes

Problem: Given Cc1cccc(-c2nc(SCC(=O)Nc3cc(C)on3)c3c(=O)n(C)c(=O)n(C)c3n2)c1 , state the outcome it received in this test.
Result: No

Problem: Identify the outcome logged in this assay for the compound shown: COC(=O)c1nc2ccccc2s1
Result: No

Problem: Recorded test outcome, item Cc1csc(-c2nc3ccccc3n2C)n1
Result: Yes

Problem: Please indicate how the test categorized Cn1c(=O)nc2n(-c3ccc(Br)cc3)c3cccc(Cl)c3cc-2c1=O .
Result: No

Problem: Please state the recorded outcome for this compound: CCOc1ccc(NC(=O)c2ncoc2-c2ccco2)cc1
Result: Yes

Problem: For O=C(Cc1ccccc1)Nc1sc2c(c1C(=O)Nc1ccc(Br)cc1)CCC2 , what call appears in the results of this test?
Result: No

Problem: Short answer needed: outcome of this test for COc1ccc(OCC(=O)Nc2cccc(C(=O)OCc3cc(=O)n4nc(C)sc4n3)c2)cc1 ?
Result: No

Problem: I would be grateful if you could indicate the recorded call for Cc1ccc(CCNC(=O)c2ccc3c(c2)N(Cc2cc(C)ccc2C)C(=O)c2ccccc2S3=O)cc1 (stereo not drawn) .
Result: No

Problem: Status in this test for c1ccc2[nH]c(NCCN3CCOCC3)nc2c1 ?
Result: No

Problem: Answer briefly: the call reported for CCOc1ccc(-c2cc3nc(C4CCN(C(=O)OC(C)(C)C)CC4)c(C(=O)Nc4cccc(CC)c4)cn3n2)cc1 in this assay.
Result: No

Problem: Would you mind telling me which call this test gave Cc1nn2c(=O)cc(COC(=O)c3cccc(NC(=O)COc4ccccc4Cl)c3)nc2s1 ?
Result: Yes

Problem: For CCC(=O)Oc1cccc(C(=O)Nc2ccc(-c3nnc(-c4ccco4)o3)cc2)c1 , what call appears in the results of this test?
Result: No

Problem: Look up the recorded call for O=C(c1cccc(Br)c1)N1CCN(Cc2cc(=O)n3nc(-c4ccccc4)sc3n2)CC1 in this test.
Result: No

Problem: Short answer needed: outcome of this test for CCOC(=O)c1ccc(NC(=O)c2nc(SCc3ccc(F)cc3)ncc2Cl)cc1 ?
Result: No

Problem: Which result was noted for this compound in the test: CCN(c1ncnc2c1cnn2-c1ccc(C)cc1)C1CCCCC1
Result: Yes

Problem: Record lookup: outcome of this test for O=C(Nc1ccc(NC(=O)c2cccs2)cn1)c1ccco1 ?
Result: Yes

Problem: Please state the recorded outcome for this compound: Cc1ccnc(NC(=O)c2ccc(NC(=O)c3ccco3)cc2)c1
Result: No

Problem: Hi, do you know how CCc1cccc(-n2nnc(-c3nsc(NC(=O)c4ccc(C)cc4)n3)c2C)c1 came out in this test?
Result: No

Problem: Given C=CCN(CC=C)C(=O)CN1C(=O)c2ccccc2C1=O , state the outcome it received in this test.
Result: No

Problem: Each compound tested received a call. Report the one for CCC(C)NC(=O)Cn1c(=O)n(-c2ccc(Cl)cc2)c(=O)c2c3c(sc21)CCCC3 (stereo not drawn) .
Result: No

Problem: How was O=C(COc1ccccc1F)Nc1ccc(C(=O)OCc2cc(=O)n3nc(C4CC4)sc3n2)cc1 classified in this test?
Result: No

Problem: Call for entry O=C(NCCS(=O)(=O)N1CCN(c2ccc(F)cc2)CC1)c1ccccc1Br :
Result: No

Problem: Hi, sorry to bother you, what did the test record for COc1ccc(CC(=O)NCCc2sc3nc(-c4ccc(OC)cc4)nn3c2C)cc1 ?
Result: No

Problem: // outcome(item) with item = CC(C)n1c(-c2cccs2)nc2ccccc21
Result: No

Problem: Would you mind telling me which call this test gave COc1ccc(C(CCN(Cc2ccc(OC)c(OC)c2)C(=O)CCl)c2ccccc2)cc1 (stereo not drawn) ?
Result: Yes

Problem: Lab log entry: CCOc1ccc(NC(=O)Nc2cc(C)on2)cc1 — outcome as called in the assay?
Result: No

Problem: Outcome logged for CCCCN(CC)CCCNC(=O)Cn1ncc2c([nH]c3ccc(C)cc32)c1=O in this assay:
Result: No

Problem: State the result this test recorded for Cc1nn2c(=O)cc(COC(=O)c3ccccc3NC(=O)COc3ccccc3C)nc2s1 .
Result: No

Problem: Returns: the outcome recorded for CC(C)(C)NC(=O)CSc1nc(-c2ccc(F)cc2)cc(C(F)(F)F)n1 in this assay.
Result: No

Problem: How did this test come out for CCN(CC)C(=O)CSc1ncnc2c1cnn2-c1ccccc1 ?
Result: No

Problem: Dear all, I need the recorded test outcome for CCOc1ccc(NC(=O)c2c(NC(=O)Cc3ccccc3)sc3c2CCCCC3)cc1 , thank you.
Result: Yes

Problem: Given Cc1cccc(C(=O)NCCc2nc3ccccc3n2Cc2ccccc2Cl)c1 , state the outcome it received in this test.
Result: No

Problem: I'd appreciate the recorded outcome for CCOC(=O)c1c(C)oc2nc(C)nc(Nc3ccc(CC)cc3)c12 from this test.
Result: No

Problem: # lookup: test call for CCC(=O)NC(=Nc1nc2ccccc2s1)NC(=O)CC
Result: Yes

Problem: Would you mind telling me which call this test gave Cc1ccc(NC(=O)c2ccc3[nH]c(C)cc(=O)c3c2)c(C)c1 ?
Result: No

Problem: Recorded test call requested for CCCS(=O)(=O)c1ncc(Cl)c(C(=O)Nc2scc(-c3ccccc3)c2C(=O)OCC)n1
Result: Yes

Problem: Per the records of this test, what outcome belongs to c1ccc(-c2nc(NCc3ccco3)c3ccccc3n2)cc1 ?
Result: No

Problem: Fill in: this test's call for O=C(Nc1cccc(NC(=O)c2ccco2)c1)c1cnccn1 is ___
Result: No

Problem: Per the records of this test, what outcome belongs to CCOc1ccc(C(=O)Nc2ccncc2)cc1 ?
Result: No

Problem: What was the test verdict on CCc1ccc(NC(=O)C2CCCN2S(=O)(=O)c2ccc3nc(-c4ccccc4)[nH]c3c2)cc1 (stereo not drawn) ?
Result: No

Problem: Assay result, entry CCOc1ccc(NC(=O)c2c(NCc3cccc(OC)c3OC)sc3c2CCC3)cc1 — outcome?
Result: No

Problem: Write down the call the test reported for this compound. Item: c1ccc(-n2ncc3c2ncn2c(C4CCCCC4)nnc32)cc1
Result: No
